# target.entity: T1, IGF1R-Fc (extracellular domain of human IGF1R aa 1-932 fused to hinge and constant regions of human IgG1) (human, UniProt P08069 31-932)
# T1 construct: range 1-932; made in house by transient transfection, purified on Protein A; also called IGF-IR-Fc; not shown: hinge and constant regions of human IgG1
# test.summary: SPR Biacore, IGF1R-Fc
Overview of recorded kon for various binders
Give just the numeric value; M⁻¹ s⁻¹ need not be written.

[Q] Value lookup for kon; key = I1(S91C)-GS10-E5 pegylated (designed binder, PEG on Cys at position 91 of I1 (position of SEQ ID NO: 1), also called I1(S91C)-GS10-E5(7)) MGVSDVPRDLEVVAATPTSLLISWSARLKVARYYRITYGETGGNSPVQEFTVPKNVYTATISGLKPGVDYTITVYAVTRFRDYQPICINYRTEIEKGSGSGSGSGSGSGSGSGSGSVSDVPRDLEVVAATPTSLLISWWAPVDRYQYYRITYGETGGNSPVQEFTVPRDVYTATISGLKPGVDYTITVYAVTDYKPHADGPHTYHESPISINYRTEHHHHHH
[A] 82200

[Q] // kon lookup, key: I1(S62C)-GS10-E5 pegylated (designed binder, PEG on Cys at position 62 of I1 (position of SEQ ID NO: 1), also called I1(S62C)-GS10-E5(5)) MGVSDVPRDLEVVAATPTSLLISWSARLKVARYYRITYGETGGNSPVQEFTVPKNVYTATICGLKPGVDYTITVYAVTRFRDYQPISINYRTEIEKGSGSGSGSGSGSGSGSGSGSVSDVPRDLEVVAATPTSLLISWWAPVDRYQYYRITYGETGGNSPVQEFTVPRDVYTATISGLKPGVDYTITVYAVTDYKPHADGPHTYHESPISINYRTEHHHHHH
[A] 334000

Note: attention shifts to another entry.
[Q] Looking for the measured kon of I1-GS10-E5-GSGC pegylated (designed binder, PEG on the Cys of the GSGC tail of E5, alternative clone of I1-GS10-E5 pegylated; also called I1-GS10-E5-GSGC(4)) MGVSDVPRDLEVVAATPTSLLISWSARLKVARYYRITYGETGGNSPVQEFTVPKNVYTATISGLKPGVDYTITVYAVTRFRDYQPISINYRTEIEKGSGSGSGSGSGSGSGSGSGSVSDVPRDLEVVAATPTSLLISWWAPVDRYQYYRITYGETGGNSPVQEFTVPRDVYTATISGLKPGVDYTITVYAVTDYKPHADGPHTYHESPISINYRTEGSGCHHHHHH , can you help?
[A] 1.07e+06
